# Stimulation Index (average ± SD) per record follows
System: PHA-stimulated splenocytes
Assay notes: Proliferative response of PHA-stimulated splenocytes (MTT assay)
Format: cell-based
Measurement parameters: PHA 5 μg/ml, 72 hr; compounds at 5 μM (method says 10 μM); ratio of O.D. versus vehicle control
Measurement type: Stimulation Index (average ± SD)

{"Smiles input": "COc1cc(/C=C/C(=O)CC(=O)/C=C/c2ccc(OC(=O)[C@H](Cc3c[nH]c4ccccc34)NC(=O)OCc3ccccc3)c(OC)c2)ccc1OC(=O)[C@H](Cc1c[nH]c2ccccc12)NC(=O)OCc1ccccc1", "Result number": 2.60}
{"Smiles input": "COc1cc(/C=C/C(=O)CC(=O)/C=C/c2ccc(OC(=O)[C@H](C)NC(=O)OC(C)(C)C)c(OC)c2)ccc1OC(=O)[C@H](C)NC(=O)OC(C)(C)C", "Result number": 2.71}
{"Smiles input": "COc1cc(/C=C/C(=O)CC(=O)/C=C/c2ccc(OC(=O)[C@H](Cc3ccccc3)NC(=O)OC(C)(C)C)c(OC)c2)ccc1OC(=O)[C@H](Cc1ccccc1)NC(=O)OC(C)(C)C", "Result number": 2.56}
{"Smiles input": "COc1cc(/C=C/C(=O)CC(=O)/C=C/c2ccc(OC(=O)[C@H](CCSC)NC(=O)OCc3ccccc3)c(OC)c2)ccc1OC(=O)[C@H](CCSC)NC(=O)OCc1ccccc1", "Result number": 1.22}

* * *

# IC50 per record follows
System: A-549 (lung) carcinoma cell line
Assay notes: Anti-tumor properties, MTT
Format: cell-based
Measurement parameters: Homo sapiens, A549

{"Compound": "COc1cc(/C=C/C(=O)CC(=O)/C=C/c2ccc(OC(=O)[C@@H](N)Cc3ccccc3)c(OC)c2)ccc1OC(=O)[C@@H](N)Cc1ccccc1.Cl.Cl [HCl-L-Phe-Cur]", "Unit": "µM", "Comparator": "=", "IC50": 33.5}
{"Compound": "COc1cc(/C=C/C(=O)CC(=O)/C=C/c2ccc(OC(=O)C(C)N)c(OC)c2)ccc1OC(=O)C(C)N.Cl.Cl (racemic) [HCl-DL-Ala-Cur]", "Unit": "µM", "Comparator": "=", "IC50": 22.2}
{"Compound": "COc1cc(/C=C/C(=O)CC(=O)/C=C/c2ccc(OC(=O)[C@@H](N)CCC(N)=O)c(OC)c2)ccc1OC(=O)[C@@H](N)CCC(N)=O.Cl.Cl [HCl-L-Gln-Cur]", "Unit": "µM", "Comparator": "=", "IC50": 21.1}
{"Compound": "COc1cc(/C=C/C(=O)CC(=O)/C=C/c2ccc(OC(=O)[C@@H](CCSC)NC(=O)OC(C)(C)C)c(OC)c2)ccc1OC(=O)[C@@H](CCSC)NC(=O)OC(C)(C)C", "Unit": "µM", "Comparator": ">", "IC50": 100}

* * *

Test system: MCF-7 cells
Assay notes: Effect on doxorubicin induced cytotoxicity (MTT)
Measurement parameters: 10 μM DOX in combination with 100 μM curcumin derivative, 48 hr
Measurement type: Percentage of viable cells MCF-7 (average ± SD)

{"Smiles input": "COc1cc(/C=C/C(=O)CC(=O)/C=C/c2ccc(OC(=O)[C@@H](NC(=O)OCc3ccccc3)C(C)C)c(OC)c2)ccc1OC(=O)[C@@H](NC(=O)OCc1ccccc1)C(C)C", "Measurement target": "MCF-7 cells", "Result number": 49.68}
{"Smiles input": "COc1cc(/C=C/C(=O)CC(=O)/C=C/c2ccc(OC(=O)[C@@H](NC(=O)OCC3c4ccccc4-c4ccccc43)C(C)C)c(OC)c2)ccc1OC(=O)[C@@H](NC(=O)OCC1c2ccccc2-c2ccccc21)C(C)C", "Measurement target": "MCF-7 cells", "Result number": 25.15}
{"Smiles input": "COc1cc(/C=C/C(=O)CC(=O)/C=C/c2ccc(OC(=O)[C@H](CCSC)NC(=O)OCC3c4ccccc4-c4ccccc43)c(OC)c2)ccc1OC(=O)[C@H](CCSC)NC(=O)OCC1c2ccccc2-c2ccccc21", "Measurement target": "MCF-7 cells", "Result number": 38.75}
{"Smiles input": "COc1cc(/C=C/C(=O)CC(=O)/C=C/c2ccc(OC(=O)[C@H](Cc3ccccc3)NC(=O)OCc3ccccc3)c(OC)c2)ccc1OC(=O)[C@H](Cc1ccccc1)NC(=O)OCc1ccccc1", "Measurement target": "MCF-7 cells", "Result number": 43.40}
